- Test system: NCI-H460 lung
Outcome field: choose from active, inactive

Take a look at these entries with their results.
* CN1CCN(c2ccc(NC(=O)c3nc4ccc5[nH]ncc5c4c4c3CCCC4)cc2C(F)(F)F)CC1 | inactive
* C=CCN(/C=C1/C(=O)O[C@H](COC)[C@@]2(C)C1=C(O)C(=O)C1=C2[C@H](OC(C)=O)C[C@]2(C)C(=O)CC[C@@H]12)CC=C | inactive
* CCC(=O)O[C@H]1CC[C@H]2[C@@H]3CC[C@H]4CC(=O)[C@H](C)C[C@]4(C)[C@H]3CC[C@]12C | inactive
* C/C(=N\O)c1cccc(Nc2cc(-n3ccnn3)c3ccccc3n2)c1 | inactive

(Q) Any idea what this test logged for COc1ccc(-c2cc(=O)c3c(C)cc(C)nc3[nH]2)cc1 ?
(A) inactive

(Q) Outcome? C[C@H](NC(=O)[C@@H]1CSSC[C@@H](NC(=O)c2nc3ccccc3cc2O)C(=O)NCC(=O)N1C)c1ccccc1
(A) inactive

(Q) For Cc1ccc(/C(=N\N=C(N)N)c2ccccc2)cc1 , which call appears in the assay record?
(A) active

(Q) GET /call?item= CCN(CC)CCNc1ccc([N+](=O)[O-])c2sc3ccccc3c(=O)c12 returns the recorded outcome of this test.
(A) inactive

(Q) Name the outcome recorded for COc1cc(CCN)c2c(c1OC)SSSSS2 in the assay.
(A) inactive
